Sourced from patent US20220177587A1

Molecular target: huPD-L1 (Homo sapiens, UniProt Q9NZQ7)
Sequence (Q9NZQ7 19-290): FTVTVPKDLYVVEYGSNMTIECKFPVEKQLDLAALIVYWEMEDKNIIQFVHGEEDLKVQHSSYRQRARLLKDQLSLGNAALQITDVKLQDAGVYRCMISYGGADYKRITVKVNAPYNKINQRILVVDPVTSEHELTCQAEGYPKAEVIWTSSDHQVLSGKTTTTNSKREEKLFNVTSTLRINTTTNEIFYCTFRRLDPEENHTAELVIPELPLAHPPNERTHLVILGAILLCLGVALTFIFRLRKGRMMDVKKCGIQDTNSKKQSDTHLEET
Assay: Flow binding to CHO cells stably expressing PD-L1
Parameters: huCTLA4 and huPD-L1, full-length mammalian surface expression constructs were generated; expressed in transfected cells; host or cells: CHO cells, lentiviral transduction, sorted to >98% purity
Conditions: Table E23; MFI at 33.3 nM relative to CD80 WT IgV-Fc
outcome.measure: PD-L1 Fold change to WT CD80

- H18V/A26D/E35D/M47V/V68M/A71G/D90G (protein, UniProt P33681 35-288, looked up, variant H18V A26D E35D M47V V68M A71G D90G, Fc fusion) T-lymphocyte activation …: VIHVTKEVKEVATLSCGVNVSVEELDQTRIYWQKDKKMVLTMMSGDVNIWPEYKNRTIFDITNNLSIMILGLRPSDEGTYECVVLKYEKGAFKREHLAEVTLSVKADFPTPSISDFEIPTSNIRRIICSTSGGFPEPHLSWLENGEELNAINTTVSQDPETELYAVSSKLDFNMTTNHSFMCLIKYGHLRVNQTFNWNTTKQEHFPDNLLPSWAITLISVNGIFVICCLTYCFAPRCRERRRNERLRRESVRPV: 409.1
- H18V/A26Q/E35D/M47V/V68L/A71G/D90G (protein, UniProt P33681 35-288, looked up, variant H18V A26Q E35D M47V V68L A71G D90G) T-lymphocyte activation …: VIHVTKEVKEVATLSCGVNVSVEELQQTRIYWQKDKKMVLTMMSGDVNIWPEYKNRTIFDITNNLSILILGLRPSDEGTYECVVLKYEKGAFKREHLAEVTLSVKADFPTPSISDFEIPTSNIRRIICSTSGGFPEPHLSWLENGEELNAINTTVSQDPETELYAVSSKLDFNMTTNHSFMCLIKYGHLRVNQTFNWNTTKQEHFPDNLLPSWAITLISVNGIFVICCLTYCFAPRCRERRRNERLRRESVRPV: 203.6
- H18T/A26N/E35D/M47L/V68M/A71G (protein, UniProt P33681 35-288, looked up, variant H18T A26N E35D M47L V68M A71G, Fc fusion) T-lymphocyte activation …: VIHVTKEVKEVATLSCGTNVSVEELNQTRIYWQKDKKMVLTMMSGDLNIWPEYKNRTIFDITNNLSIMILGLRPSDEGTYECVVLKYEKDAFKREHLAEVTLSVKADFPTPSISDFEIPTSNIRRIICSTSGGFPEPHLSWLENGEELNAINTTVSQDPETELYAVSSKLDFNMTTNHSFMCLIKYGHLRVNQTFNWNTTKQEHFPDNLLPSWAITLISVNGIFVICCLTYCFAPRCRERRRNERLRRESVRPV: 415.1
